// data source = patent US11530244B2

# TARGET_UNDER_TEST: human PCSK9 / human LDLR EGFa domain interaction (Homo sapiens (Human), UniProt Q8NBP7)
# Sequence (Q8NBP7 153-692): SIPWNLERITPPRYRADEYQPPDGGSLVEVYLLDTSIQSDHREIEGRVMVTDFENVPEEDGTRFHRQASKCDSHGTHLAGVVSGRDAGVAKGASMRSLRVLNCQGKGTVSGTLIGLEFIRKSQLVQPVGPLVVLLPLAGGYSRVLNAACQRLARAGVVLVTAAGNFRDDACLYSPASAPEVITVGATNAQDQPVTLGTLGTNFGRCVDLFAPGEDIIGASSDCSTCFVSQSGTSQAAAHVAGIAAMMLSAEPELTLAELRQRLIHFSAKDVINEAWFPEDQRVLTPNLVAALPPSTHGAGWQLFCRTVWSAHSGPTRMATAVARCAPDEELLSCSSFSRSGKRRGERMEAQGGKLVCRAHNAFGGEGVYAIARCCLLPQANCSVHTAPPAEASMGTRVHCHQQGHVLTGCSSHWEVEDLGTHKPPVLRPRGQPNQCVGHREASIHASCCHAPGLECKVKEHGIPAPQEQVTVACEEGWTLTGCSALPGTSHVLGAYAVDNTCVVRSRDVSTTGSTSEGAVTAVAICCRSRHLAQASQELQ
# Sequence (Q8NBP7 31-152 partner): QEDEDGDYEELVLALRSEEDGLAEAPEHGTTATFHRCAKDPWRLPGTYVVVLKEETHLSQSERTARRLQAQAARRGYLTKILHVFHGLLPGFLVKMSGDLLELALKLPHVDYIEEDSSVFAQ
# TEST: TR-FRET assay of inhibition of the PCSK9-LDLR protein-protein interaction
# Assay type: binding
# CONDITION_SET: TR-FRET, 20 nM human PCSK9, 20 nM human LDLR EGFa domain, 2 hours room temperature; read-out: IC50
Starred links: 1 amine or outer side, 2 acyl side, 3 side chain; linkers in the order of their positions; H or OH if unused. Positions of bridges follow the written chain, without caps; N, C: chain ends. Non-standard residues stand in square brackets, D forms with d. Residues, ends and D or L forms follow the SMILES beside them. Trp(5-F) = N[C@@H](Cc1c[nH]c2ccc(F)cc12)C(=O)O; NMePhe(4-F) = CN[C@@H](Cc1ccc(F)cc1)C(=O)O; mXylylene = c1cc(C[*:1])cc(C[*:2])c1; Nva = CCC[C@H](N)C(=O)O
READOUT_LABEL: IC50

Measured IC50 of CCC[C@H](NC(C)=O)C(=O)N[C@@H](Cc1c[nH]cn1)C(=O)N(C)[C@@H](Cc1ccc(F)cc1)C(=O)N[C@H]1CSCc2cccc(c2)CSC[C@@H](C(N)=O)NC(=O)[C@@H]2CCCN2C(=O)[C@H](Cc2ccc(O)cc2)NC(=O)[C@H](Cc2c[nH]cn2)NC(=O)[C@H](CC(=O)O)NC(=O)[C@H](Cc2c[nH]c3ccc(F)cc23)NC(=O)[C@H](Cc2c[nH]c3ccc(F)cc23)NC(=O)CNC(=O)[C@H](CCCCN)NC1=O [Compound 143] (Ac-[Nva]H[NMePhe(4-F)]CKG[Trp(5-F)][Trp(5-F)]DHYPC-NH2; linker 4-13 via mXylylene) : 21 to 50 µM
